Just for reference, PubChem BioAssay (NCI) is where these values come from.

Protocol: NCI Yeast Anticancer Drug Screen. Data for the mlh1 rad18 strain (AID 175)
Assay conditions: S. cerevisiae mlh1 rad18 strain growth inhibition; at 50.0 µM (retest, dose inferred, filed as 5.0)
Compounds without any hit were thinned out: in the full panel of roughly 79,000, 15% have a hit. Calls of active or inactive are those of the source. No stated cut-off is given here; in the data, active means growth inhibition above about 70%; inactive means the rest.
Choose the fitting class; nothing outside TRUE = active, FALSE = inactive is accepted.

Solved cases (3 shown):
>>> assigned_class("CCC[CH2][Sn]1([CH2]CCC)[O]CC(COc2c(Cl)cc(Cl)cc2Cl)[O]1 (centres undefined)")
"TRUE"
>>> assigned_class("CCOC(=O)C(Cl)Cl")
"FALSE"
>>> assigned_class("C/C=C1/C(=O)O[C@]23C=C[C@@H]4C(C(=O)OC)=CO[C@H](O[C@@H]12)[C@@H]43")
"TRUE"

How did this test come out for C[N+](C)(C)CC1CCCc2ccccc2C1=O (centres undefined) ? TRUE

Another: COc1cc(C2c3[nH]c4ccccc4c3[C@@H](Nc3ccc(C#N)cc3)[C@H]3COC(=O)N23)cc(OC)c1O (some centres undefined) TRUE

Another: O=[N+]([O-])c1ccc(SP(=S)(c2ccccc2)c2ccccc2)c([N+](=O)[O-])c1 TRUE

Another: COC12C(COC(N)=O)C3=C(C(=O)C(C)=C(N)C3=O)N1CC1C2N1C (centres undefined) TRUE

Another: N#CC(C#N)=Cc1c(O)ccc2ccccc12 TRUE

Another: CCCCCCCC(=O)[O][Hg][c]1ccccc1 TRUE

Another: CCC[CH2][Sn]1([CH2]CCC)[O]CCN2CCN(CC[O]1)CC2 FALSE

Another: COC1=C(Cl)C(=O)c2ccccc2C1=O TRUE

Another: C#CC(/C=C/Cl)(CC)OC(N)=O (centres undefined) FALSE

Another: O=C(O)C1CC2c3ccccc3C1([N+](=O)[O-])c1ccccc12 (centres undefined) FALSE

Another: O=C([CH-]C(=O)c1ccccc1)c1ccccc1.O=C([CH-]C(=O)c1ccccc1)c1ccccc1.O=C([CH-]C(=O)c1ccccc1)c1ccccc1.[Cl-].[Zr+4] TRUE

Another: CCc1cc(C)cc2[n+]1CC=C2 TRUE

Another: Cc1cc(N(CCCl)CCCl)ccc1C1N(Cc2ccc(N(CCCl)CCCl)cc2Cl)CCCN1Cc1ccc(N(CCCl)CCCl)cc1Cl TRUE

Another: O=C(N/N=C/c1cc(Br)cc(Br)c1[O-])c1ccccc1O.O=C(N/N=C/c1cc(Br)cc(Br)c1[O-])c1ccccc1O.[Zn+2] TRUE

Another: C[C@]12CCC(O)CC1=CC[C@@H]1[C@@H]2CC[C@]2(C)C(=O)[C@H](n3ccnc3)C[C@@H]12 (some centres undefined) FALSE

Another: CN(C)c1ccc(N=Nc2cccc(C(=O)[O-])c2)cc1.CN(C)c1ccc(N=Nc2cccc(C(=O)[O-])c2)cc1.NC1CCCCC1N.O=[N+]([O-])O.[Pt+4] TRUE

Another: S=P(OC1CC2CCC1C2)(c1ccccc1)c1ccccc1 (centres undefined) TRUE

Another: CCC[CH2][Pb]([CH2]CCC)([CH2]CCC)[n]1ccnc1 TRUE

====

Protocol: NCI Yeast Anticancer Drug Screen. Data for the cln2 rad14 strain (AID 165);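 further: 0% = growth equal to vehicle treated cultures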
Assay conditions: S. cerevisiae cln2 rad14 strain, at 50.0 µM, active compounds read high
The panel holds about 79,000 compounds, 15% with a hit somewhere; the sample as a whole holds those more often.
I would appreciate it if you labelled entries 1 when growth inhibition is 10% or higher, otherwise -1.

Solved cases (3 shown):
>>> assigned_class("C[C@]12CCCC[C@@H]1CC[C@@H]1[C@@H]2C(=O)C[C@@]2(C)[C@H]1CC[C@]2(C)O")
1
>>> assigned_class("[Br][Hg][CH]1CCC2CCCC1O2 (stereo not drawn)")
1
>>> assigned_class("C/C=N/Nc1ccc([N+](=O)[O-])cc1[N+](=O)[O-]")
-1

Textbook exercise: given the entry CC(C)CCC(=O)OC1CCC2(C)C(=CCC3C4CCC(=O)C4(C)CCC32)C1 (stereo not drawn) , state whether its growth inhibition is greater than or equal to 10%. -1

Another: O=NN(O)c1ccccc1.O=NN(O)c1ccccc1.[Mn+2] -1

Another: CC(CC(C#N)(c1ccccc1)c1ccccc1)N1CCCCC1 (stereo not drawn) 1

Another: Brc1ccc2nncc(N3CC3)c2c1 -1

Another: C[CH2][Sn]([CH2]C)([O]C(=O)c1ccccc1F)[O]C(=O)c1ccccc1F 1

Another: Cc1nn[n-]n1.N.N.N.N.N.[Cl-].[Co+3] 1

Another: O=S(=O)(F)c1ccc(Cl)cc1 1

Another: N#CC(C#N)=Cc1cccc(C#N)c1 1

Another: [Cl][Hg][c]1ccco1 1

Another: COC1CCCC2OC3(OC)C(OC)CCCC3OC12OC (stereo not drawn) 1

Another: CCN1C(=O)C(=C/C=C/c2ccc([N+](=O)[O-])cc2)C(=O)N(CC)C1=S 1

Another: C[C@@H](O)[C@H]1/C=C/C=C\C(=O)O[C@@H]2C[C@H]3O[C@@H]4[C@@H]5OC5(C)CCC4(COC(=O)[C@H]4O[C@]4(C)[C@@H](O)CO1)[C@]2(C)[C@]31CO1 (stereo partly drawn) 1

Another: CN(C)C(=O)Oc1c(Cl)cc(S(=O)(=O)F)cc1Cl 1
